Parameter protein stability index: see the listing below.
B1: MMP1 (parent)
chain: FVRGDHRDNSPFDGPGGNLAHAFQ

Variants of: B1
Assay: protein stability index of a GFP-peptide fusion (GPS, HEK-293T) (PSI 1-6); higher = more stable;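 further: lentivirally expressed fusions sorted by FACS into six bins by GFP to DsRed ratio, PSI derived from sequencing read proportions per bin multiplied by bin number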
Settings: c terminus: a fixed tail appended
// no unit string in output, number only

Incoming: Tell me the measured protein stability index of D13E , please.
Outgoing: 2.57

Incoming: Tell me the measured protein stability index of V2P , please.
Outgoing: 2.85

Incoming: Tell me the measured protein stability index of L19N , please.
Outgoing: 1.73

Incoming: Tell me the measured protein stability index of F1T , please.
Outgoing: 3.78

Incoming: Tell me the measured protein stability index of G17W , please.
Outgoing: 2.48

Incoming: Tell me the measured protein stability index of Q24E , please.
Outgoing: 3.81
